Ret-1 (Homo sapiens, UniProt P07949): recorded IC50 for assorted compounds
Sequence (P07949 29-1114): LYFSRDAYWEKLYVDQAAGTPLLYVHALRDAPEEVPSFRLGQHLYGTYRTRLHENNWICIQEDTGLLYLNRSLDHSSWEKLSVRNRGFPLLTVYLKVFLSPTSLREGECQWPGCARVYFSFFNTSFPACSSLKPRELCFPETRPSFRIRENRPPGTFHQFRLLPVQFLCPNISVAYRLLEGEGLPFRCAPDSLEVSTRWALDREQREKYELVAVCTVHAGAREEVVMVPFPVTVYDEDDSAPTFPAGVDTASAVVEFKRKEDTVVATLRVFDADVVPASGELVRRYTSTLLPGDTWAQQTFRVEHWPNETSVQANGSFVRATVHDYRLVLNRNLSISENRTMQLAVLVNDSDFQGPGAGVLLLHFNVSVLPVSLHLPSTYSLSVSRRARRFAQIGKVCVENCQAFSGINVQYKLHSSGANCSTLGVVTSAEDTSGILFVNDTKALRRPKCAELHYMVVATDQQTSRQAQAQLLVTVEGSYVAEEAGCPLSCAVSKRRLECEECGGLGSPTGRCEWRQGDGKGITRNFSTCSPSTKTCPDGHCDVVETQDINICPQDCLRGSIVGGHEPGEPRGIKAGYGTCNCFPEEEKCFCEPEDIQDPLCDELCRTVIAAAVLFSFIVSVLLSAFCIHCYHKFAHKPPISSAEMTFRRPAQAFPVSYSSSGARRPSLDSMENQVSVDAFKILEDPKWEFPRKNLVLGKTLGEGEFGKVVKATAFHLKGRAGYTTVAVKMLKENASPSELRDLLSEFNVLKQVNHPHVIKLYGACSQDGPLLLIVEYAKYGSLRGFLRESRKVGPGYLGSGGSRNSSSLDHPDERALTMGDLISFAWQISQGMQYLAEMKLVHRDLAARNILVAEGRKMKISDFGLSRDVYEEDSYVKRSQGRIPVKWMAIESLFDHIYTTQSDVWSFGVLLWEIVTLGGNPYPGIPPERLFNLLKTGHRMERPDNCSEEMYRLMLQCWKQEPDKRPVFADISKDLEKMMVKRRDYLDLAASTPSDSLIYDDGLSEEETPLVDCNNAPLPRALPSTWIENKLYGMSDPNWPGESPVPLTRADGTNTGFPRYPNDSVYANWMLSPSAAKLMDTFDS

Before answering, review these 3 worked examples.
compound="COc1cc(Nc2ncnc(Nc3ccc(Br)cc3)n2)cc(OC)c1OC [Compound 82]" endpoint_value="0.925 to 5.55 µM"
compound="COc1cc(Nc2ncnc(-n3c(N[C@@H](C)c4ccccc4)nc4ccccc43)n2)cc(OC)c1OC [Compound 1033]" endpoint_value="< 0.804 µM"
compound="COc1cc(Nc2ncnc(N3CCCc4ccccc43)n2)cc(OC)c1OC [Compound 609]" endpoint_value="< 1.02 µM"

Query: Request - read-out IC50 | tested on Ret-1 (Homo sapiens, UniProt P07949) | compound COc1cc(Nc2ncnc(N(C/C=C/c3ccccc3)c3ccc(Cl)cc3)n2)cc(OC)c1OC [Compound 56]
Result: > 8.93 µM

Query: Form field: IC50 recorded for COc1cc(Nc2ncnc(Nc3ccccc3C)n2)cc(OC)c1OC [Compound 67] with Ret-1 (Homo sapiens, UniProt P07949) (enter value)
Result: > 12.2 µM

Query: For Ret-1 (Homo sapiens, UniProt P07949), provide IC50 of COc1cc(Nc2ncnc(Nc3ccc(OCc4ccccc4)cc3)n2)cc(OC)c1OC [Compound 926] please.
Result: 7.62 to 9.79 µM

Query: Given the entry O=C1OCc2ccc(Nc3ncnc(Nc4cc(-c5ccco5)n[nH]4)n3)cc21 [Compound 364] , what IC50 was observed with Ret-1 (Homo sapiens, UniProt P07949)?
Result: 1.07 to 6.39 µM

Query: Record COc1cc(Nc2ncnc(Nc3ccc4[nH]ncc4c3)n2)cc(OC)c1OC [Compound 79] : what is its IC50 with Ret-1 (Homo sapiens, UniProt P07949)?
Result: > 11.4 µM
